B1: 3'-5' exoribonuclease 1, residues 65 to 114; numbered along this chain, Q8IV48 (parent)
chain: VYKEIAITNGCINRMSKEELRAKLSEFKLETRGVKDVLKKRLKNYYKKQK

# Variants of: B1
# assayName: abundance fitness (aPCA) (normalised: wild type 0, dead -1); higher = more abundant; growth selection in yeast, the domain comes from the species named
# measurementContext: Homo sapiens
Tick TRUE if abundance fitness is -0.05 or greater. Tick FALSE if abundance fitness is less than -0.05.

Some solved entries appear below for comparison.
Y2A: TRUE
N13E: FALSE
T8F: FALSE

Enquiry: Dear colleague, could you confirm whether S25Y has abundance fitness at or above -0.05?
Return: FALSE

Enquiry: Another variant to look at: E19P
Return: FALSE

Enquiry: Now give it for K40L too.
Return: FALSE

Enquiry: Another variant to check: I5D
Return: TRUE

Enquiry: Now give it for Y2P too.
Return: TRUE

Enquiry: Now this one: I7A
Return: FALSE

Enquiry: Can you check E4H next?
Return: FALSE
